The origin of these recorded values is the NIST ThermoML archive (doi:10.1016/j.jct.2014.01.022).

# test-context: 298.15 K; 101.33 kPa; Liquid; Vibrating tube method
Classify by measured mass density: MET if it is equal to or exceeds 900 kg/m3, NOT MET if it is smaller.

Does the compound CCc1ccccc1 [ethylbenzene] have recorded mass density that is 900 kg/m3 or more? NOT MET

Does the compound CCCn1cc[n+](C)c1.O=S(=O)([N-]S(=O)(=O)C(F)(F)F)C(F)(F)F have recorded mass density that is 900 kg/m3 or more? MET

Does the compound CCCC[n+]1ccn(C)c1.O=S(=O)([N-]S(=O)(=O)C(F)(F)F)C(F)(F)F have recorded mass density that is 900 kg/m3 or more? MET

Does the compound CCCCCCCCC [nonane] have recorded mass density that is 900 kg/m3 or more? NOT MET

Does the compound Cc1ccccc1 [toluene] have recorded mass density that is 900 kg/m3 or more? NOT MET

Does the compound CCCCCCCC [octane] have recorded mass density that is 900 kg/m3 or more? NOT MET
